biological target: DPP-4 (Homo sapiens, UniProt P27487); assay: Inhibition of DPP-4 by N-blocked boroPro compounds (progress curves); assay type: biochemical; parameters: DPP-4 (amino acids 39-766); FLAG (N); made in house; host or cells: 293 cells (secreted, purified from serum-free conditioned media); settings: cleavage of substrate L-Ala-Pro-AFC
Sequence (P27487 39-766): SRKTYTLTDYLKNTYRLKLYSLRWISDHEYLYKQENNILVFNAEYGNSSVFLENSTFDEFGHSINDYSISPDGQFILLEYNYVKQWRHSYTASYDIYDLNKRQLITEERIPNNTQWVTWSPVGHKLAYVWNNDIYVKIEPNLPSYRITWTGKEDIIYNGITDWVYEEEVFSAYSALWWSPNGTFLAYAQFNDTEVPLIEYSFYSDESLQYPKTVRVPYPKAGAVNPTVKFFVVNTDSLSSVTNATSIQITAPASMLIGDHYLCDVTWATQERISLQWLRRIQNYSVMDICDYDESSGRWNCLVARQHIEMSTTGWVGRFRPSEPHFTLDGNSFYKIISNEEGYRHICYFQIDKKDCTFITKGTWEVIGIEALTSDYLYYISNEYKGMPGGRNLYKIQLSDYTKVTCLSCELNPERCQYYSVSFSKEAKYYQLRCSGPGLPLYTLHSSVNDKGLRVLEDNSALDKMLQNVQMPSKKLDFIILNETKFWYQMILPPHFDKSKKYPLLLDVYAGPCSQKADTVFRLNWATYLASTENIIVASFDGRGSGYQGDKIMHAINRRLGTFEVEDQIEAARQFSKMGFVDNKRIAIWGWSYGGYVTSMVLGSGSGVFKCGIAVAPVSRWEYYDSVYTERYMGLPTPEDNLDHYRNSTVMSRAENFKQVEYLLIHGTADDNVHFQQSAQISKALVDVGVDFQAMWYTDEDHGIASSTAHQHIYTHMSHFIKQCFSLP
pKi: −log10 of the molar value.
endpoint.name: pKi

P. O=C(CNCc1ccccc1)N1CCCC1B(O)O (stereo not shown)
Q. Cc1cccc(C)c1C(=O)NCC(=O)N1CCCC1B(O)O (stereo not shown)
Lookup: Param metric = pKi; output whichever of P , Q has the minimum value. Reply briefly: the label of your chosen item.
Found: Q
(Q: 5.96, P: 7.25)

The origin of these recorded values is patent US7399869B2.
